- procedure_text: NCI Yeast Anticancer Drug Screen. Data for the mlh1 rad18 strain (AID 175)
- stated_conditions: S. cerevisiae mlh1 rad18 strain growth inhibition, active compounds read high; at 50.0 µM unless noted
This is part of a sample that, as a whole, favours compounds with a hit. Of some 79,000 tested, about 15% had one in any assay.
observed_property: growth inhibition (%)
Just the number in %, nothing appended.

The examples below pair each entry with its known result.
INSERT INTO results (molecule, numeric_result) VALUES
  ('CC1(C)CC[C@]2(C(=O)O)CC[C@]3(C)C(=CC[C@@H]4[C@@]5(C)CC[C@H](OC6OC(CO)C(O)C(O)C6O)C(C)(C)[C@@H]5CC[C@]43C)[C@@H]2C1 (stereo partly specified)', 54.4),
  ('COC1=C2C[C@H](C)C[C@H](OC)[C@H](O)[C@@H](C)/C=C(\C)[C@H](OC(N)=O)[C@H](OC)/C=C\C=C(/C)C(=O)NC(=C(/C=N/N3CCN(C)CC3)C1=O)C2=O', 18.8),
  ('CCCSc1nn2cc(NC(=O)OC)nc2s1', -6.5),
  ('Cc1ccc(C(=O)C2C(=O)C(=O)OC2C2OC(=O)C(=O)C2C(=O)c2ccc(C)cc2)cc1 (stereo unspecified)', 42.8),
  ('O=C1CCC(=O)N1C(c1ccccc1)c1ccccc1', -6.2),
  ('Cc1nc2c(cc1C(=O)NN)c(=O)n(C)c(=O)n2C', 31.6),
  ('NC(=O)c1c([N+](=O)[O-])ncn1C1OC(CO)C(O)C1O (stereo unspecified)', 14.1),
  ('COC(=O)CC1CCS(=O)(=O)C1 (stereo unspecified)', 0),
  ('O=c1[nH]cc(Br)c(=O)[nH]1', 37),
  ('CC(c1cccc(O)c1)N(C)C (stereo unspecified)', -3.85);

Consider now this further molecule.
[in] growth inhibition lookup needed for COCS(=O)(=O)c1ccccc1 , thanks.
[out] 0.15

----------
- procedure_text: NCI Yeast Anticancer Drug Screen. Data for the rad50 strain (AID 155);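 note: 0% = growth of vehicle-only cultures of the same strain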
- stated_conditions: S. cerevisiae rad50 strain growth inhibition, active compounds read high; at 50.0 µM unless noted
This is part of a sample that, as a whole, favours compounds with a hit. Of some 79,000 tested, about 15% had one in any assay. Calls of active or inactive are those of the source. Rule as the data show it: active = growth inhibition above about 70%; inactive = the rest.
Readings of growth inhibition for the listed compounds

The examples below pair each entry with its known result.
INSERT INTO results (compound, observed_property, result) VALUES
  ('C=C1CC(C2OCOC3COCOC32)OC1=O (centres undefined)', 'growth inhibition', '-44.1% (inactive)'),
  ('CC1NC(=O)OC12CCCCC2 (centres undefined)', 'growth inhibition', '16.4% (inactive)'),
  ('O=C1COC(c2ccccc2O)=NN1Cc1ccccc1', 'growth inhibition', '-14.6% (inactive)'),
  ('NC1CC(=O)c2ccccc21 (centres undefined)', 'growth inhibition', '15.2% (inactive)'),
  ('CCOC(=O)c1ccc(-c2ccc(Cl)cc2)[nH]1', 'growth inhibition', '-7.3% (inactive)'),
  ('O=C(O)CCNC(=O)CNC(=O)OCc1ccccc1', 'growth inhibition', '3.9% (inactive)'),
  ('CC1Cn2c(Cc3ccccc3)nnc2S1 (centres undefined)', 'growth inhibition', '-15.2% (inactive)'),
  ('COC1CCC2(C)C(CCC3C4CCC(OC(C)=O)C4(C)CCC32)O1 (centres undefined)', 'growth inhibition', '1.65% (inactive)');

[in] growth inhibition lookup needed for S=c1nc[nH]c2c1ncn2Cc1ccco1 , thanks.
[out] 5.85% (inactive)

[in] growth inhibition lookup needed for COCS(=O)(=O)c1ccccc1 , thanks.
[out] 2.55% (inactive)

[in] growth inhibition lookup needed for COc1cc(OC)c(I)cc1Cl , thanks.
[out] -10.1% (inactive)

[in] growth inhibition lookup needed for OCC#CC#CCO , thanks.
[out] -3.7% (inactive)

[in] growth inhibition lookup needed for O=C(CCC(=O)Nc1ccc(Cl)c(Cl)c1)Cc1nc2ccccc2o1 , thanks.
[out] -8.25% (inactive)

[in] growth inhibition lookup needed for N#Cc1c(-c2ccccc2)c(-c2ccccc2)nn(CCO)c1=O , thanks.
[out] 7.35% (inactive)

----------
Readings of growth inhibition for the listed compounds
- procedure_text: NCI Yeast Anticancer Drug Screen. Data for the mec2-1 strain (AID 157)
- stated_conditions: S. cerevisiae mec2-1 strain, active compounds read high; at 50.0 µM unless noted
- Description: Growth inhibition of yeast strains with defined genetic alterations is measured as a screen for potential anti-cancer activity. Selected strains with alterations in DNA damage repair or cell cycle control were exposed to compounds and growth inhibition was measured relative to vehicle treated controls. The strain used in this assay is mec2-1
Compounds without any hit were thinned out: in the full panel of roughly 79,000, 15% have a hit. Calls of active or inactive are those of the source. No stated cut-off is given here; in the data, active means growth inhibition above about 70%; inactive means the rest.

INSERT INTO results (compound, result) VALUES
  ('CCCCCCCCCCCCNCCC(=O)O', '-19% (inactive)');

[in] growth inhibition lookup needed for CC12CC[C@H](O)C(C)(C)[C@H]1CC[C@](C)(O)C2COc1ccc2ccc(=O)oc2c1 (some centres not stated) , thanks.
[out] 75.2% (active)

[in] growth inhibition lookup needed for O=C(O)CCC1NCCCO1 (configuration not stated) , thanks.
[out] 3% (inactive)

[in] growth inhibition lookup needed for CCCCOC(=O)COc1c(Cl)ccc(Cl)c1Cl , thanks.
[out] -0.75% (inactive)

[in] growth inhibition lookup needed for O=[N+]([O-])c1ncccc1O , thanks.
[out] -2.75% (inactive)

[in] growth inhibition lookup needed for Nc1nc2c(c(=O)[nH]1)N(C=O)C(CCNc1ccc(C(=O)NC(CCC(=O)O)C(=O)O)cc1)CN2 (configuration not stated) , thanks.
[out] -12.2% (inactive)

----------
- procedure_text: NCI Yeast Anticancer Drug Screen. Data for the cln2 rad14 strain (AID 165);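 note: 0% = growth equal to vehicle treated cultures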
- stated_conditions: S. cerevisiae cln2 rad14 strain; at 50.0 µM unless noted
This is part of a sample that, as a whole, favours compounds with a hit. Of some 79,000 tested, about 15% had one in any assay. Active and inactive are the calls of the source. No stated cut-off is given here; in the data, active means growth inhibition above about 70%; inactive means the rest.
The reply should name one outcome from active, inactive

These solved cases illustrate the format of a correct answer.
INSERT INTO results (molecule, label) VALUES
  ('Nc1c(Cl)ncnc1NCc1ccco1', 'inactive'),
  ('Oc1ccc2ccccc2c1/C=C/c1ccc2c(Br)cc(Br)c(O)c2n1', 'inactive'),
  ('O=[N+]([O-])c1ccc(-n2nnc(C3=NCCCN3)c2-c2ccc(Cl)cc2)cc1', 'inactive'),
  ('OC1(C2(O)CCCC2)CCCC1', 'inactive'),
  ('CC(=O)OC/C(=C/C#N)C1CCC2C3CC=C4CC(OC(C)=O)CCC4(C)C3CCC12C (configuration not stated)', 'inactive');

[in] Name the outcome recorded for O=C(O)CN(CCO)CCN(CC(=O)O)CC(=O)O.[Fe+2] in the assay.
[out] inactive

[in] Name the outcome recorded for Cc1cc(N)c(N)cc1C in the assay.
[out] inactive

[in] Name the outcome recorded for CCOC(=O)C1(C#N)C(C#N)(C#N)C1(CC)CC (configuration not stated) in the assay.
[out] inactive

[in] Name the outcome recorded for CC1(CO)C2CCC(CC2)C1CO (configuration not stated) in the assay.
[out] inactive

[in] Name the outcome recorded for COC(=O)C1(C)CCCC2(C)c3cc(OC)ccc3C(=O)CC12 (configuration not stated) in the assay.
[out] inactive

[in] Name the outcome recorded for CC(=O)c1cccc(N=NN(C)C)c1 in the assay.
[out] inactive

[in] Name the outcome recorded for O=C(Nc1ccc(Cl)c(Cl)c1)Oc1cccc(NC(=S)Nc2ccccc2)c1 in the assay.
[out] active

----------
- procedure_text: NCI Yeast Anticancer Drug Screen. Data for the cln2 rad14 strain (AID 165);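 note: 0% = growth equal to vehicle treated cultures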
- stated_conditions: S. cerevisiae cln2 rad14 strain, active compounds read high; at 50.0 µM unless noted
The panel holds about 79,000 compounds, 15% with a hit somewhere; the sample as a whole holds those more often.
observed_property: growth inhibition (%)
Just the number in %, nothing appended.

INSERT INTO assay_data (compound, observed_property, numeric_result) VALUES
  ('CC1CCCN(CCC(=O)c2ccc(O)cc2)C1 (stereo not given)', 'growth inhibition', 21.2),
  ('CSc1ccc(Nc2cc(=O)[nH]c(=O)[nH]2)cc1', 'growth inhibition', 2.3),
  ('CCOC(=O)O/C(C)=C\c1ccc(Cl)cc1', 'growth inhibition', -50.4),
  ('CC(C)N=C(N)N=C(N)N', 'growth inhibition', 3.9),
  ('O=C1CN(CCN2CC(=O)N(CN3CCOCC3)C(=O)C2)CC(=O)N1CN1CCOCC1', 'growth inhibition', 3.8);

[in] growth inhibition lookup needed for C=CCCCCCCC=C , thanks.
[out] 2.45

[in] growth inhibition lookup needed for Cc1[nH]c2c(ccc3c2ccc2c(=O)c(C)c(C)[nH]c23)c(=O)c1C , thanks.
[out] -29

[in] growth inhibition lookup needed for CC#CC#C/C(=C/C=CC(=O)OC)SC , thanks.
[out] 12.3

[in] growth inhibition lookup needed for CCCN(CCC)CC(O)CNc1cc(OC)cc2cccnc12 (stereo not given) , thanks.
[out] -35.7

[in] growth inhibition lookup needed for CN(C)C(=O)NCCN(CCNC(=O)N(C)C)C(=O)N(C)C , thanks.
[out] -28.3

[in] growth inhibition lookup needed for CCCCCCCCN(CCCCCCCC)CC(O)c1ccnc2c(Cl)cc(Cl)cc12 (stereo not given) , thanks.
[out] 5.7
